This collection of values is drawn from patent US9505743B2.

Quick reference for AUC(0-t) among some compounds
experiment: In vivo rat pharmacokinetics, oral administration; conditions: plasma, PO 1.0 mg/kg, male Lewis rats, mean

>  <Compound>
[2H]C([2H])(NC(=O)c1cc(C(=O)NCc2ccc(F)c(C)c2)ncn1)c1ccc(C(=O)O)cc1 [Compound 56]

>  <AUC(0-t), ng·h/mL>
697

$$$$
>  <Compound>
Cc1cc(CNC(=O)c2cc(C(=O)NCc3ccc(C(=O)O)cc3)ncn2)ccc1F [Compound 45]

>  <AUC(0-t), ng·h/mL>
414

$$$$

* * *

experiment: In vivo rat pharmacokinetics, oral administration; settings: plasma, PO 1.0 mg/kg, male Lewis rats, mean

>  <Compound>
Cc1cc(CNC(=O)c2cc(C(=O)NCc3ccc(C(=O)O)cc3)ncn2)ccc1F [Compound 45]

>  <Unit Name>
min

>  <Tmax>
24.6

$$$$
>  <Compound>
[2H]C([2H])(NC(=O)c1cc(C(=O)NCc2ccc(F)c(C)c2)ncn1)c1ccc(C(=O)O)cc1 [Compound 56]

>  <Unit Name>
min

>  <Tmax>
45

$$$$

* * *

Reported values of Cmax for individual entries
experiment: In vivo rat pharmacokinetics, oral administration; conditions: plasma, PO 1.0 mg/kg, male Lewis rats, mean

>  <Chemical String>
[2H]C([2H])(NC(=O)c1cc(C(=O)NCc2ccc(F)c(C)c2)ncn1)c1ccc(C(=O)O)cc1

>  <Cmax, ng/mL>
362

$$$$
>  <Chemical String>
Cc1cc(CNC(=O)c2cc(C(=O)NCc3ccc(C(=O)O)cc3)ncn2)ccc1F

>  <Cmax, ng/mL>
310

$$$$

* * *

test: In-vitro human microsomal stability; type: in vitro ADME; details: human microsomes, compound 1 microMoles, at T = 60 minutes
Mean Remaining Parent with NADPH (%) values for the compounds below.

>  <Compound>
[2H]C([2H])(NC(=O)c1cc(C(=O)NCc2ccc(F)c(C)c2)ncn1)c1ccc(C(=O)O)cc1 [drawing 265]

>  <Mean Remaining Parent with NADPH (%)>
104

$$$$
>  <Compound>
Cc1cc(CNC(=O)c2cc(C(=O)NCc3ccc(F)c(C)c3)ncn2)ccc1F [drawing 269]

>  <Mean Remaining Parent with NADPH (%)>
5.3

$$$$
>  <Compound>
Cc1cc(CNC(=O)c2cc(C(=O)NCc3ccc(C(=O)O)cc3)ncn2)ccc1F [drawing 264]

>  <Mean Remaining Parent with NADPH (%)>
103

$$$$
>  <Compound>
[2H]C([2H])(NC(=O)c1cc(C(=O)NC([2H])([2H])c2ccc(F)c(C)c2)ncn1)c1ccc(F)c(C)c1 [drawing 270]

>  <Mean Remaining Parent with NADPH (%)>
5.5

$$$$
>  <Compound>
COc1cccc(CNC(=O)c2cc(C(=O)NCc3ccc(-c4nnn[nH]4)cc3)ncn2)c1 [drawing 267]

>  <Mean Remaining Parent with NADPH (%)>
88.1

$$$$
>  <Compound>
[2H]C([2H])(NC(=O)c1cc(C(=O)NCc2ccc(-c3nn[nH]n3)cc2)ncn1)c1cccc(OC)c1 [drawing 268]

>  <Mean Remaining Parent with NADPH (%)>
95.3

$$$$
>  <Compound>
[2H]C([2H])(NC(=O)c1cc(C(=O)NCc2ccc(C(=O)O)cc2)ncn1)c1ccc(F)c(C)c1 [drawing 266]

>  <Mean Remaining Parent with NADPH (%)>
95.6

$$$$
